System: HCT-116
Assay: NCI tumour cell line growth inhibition, 48 h
Activity calls are given as the source filed them. Cut-off read from the data, not from the text of the source: active = GI50 up to about 1.1 µM and inactive = higher. Where a SMILES comes first, the peptide text is derived from it. The star is where a group is joined. Cbz = O=C(OCc1ccccc1)*
observable: GI50

Some molecules with known GI50 results, for comparison:
[
  {
    "molecule": "CCOC(=O)c1cn2c(n1)sc1cc(C)c(C)cc12",
    "GI50": "17.9 µM (inactive)"
  },
  {
    "molecule": "CCOC(=O)CCC(NC(=O)C(CC(=O)OC)NC(=O)OCc1ccccc1)C(=O)NC(CC(=O)OC)C(=O)NC(CCC(=O)OCC)C(=O)NC(CC(=O)OC)C(=O)NC(CCC(=O)OCC)C(=O)NC(CC(=O)OCC)C(=O)OCC (stereo unspecified) (Cbz-D(OMe)E(OEt)D(OMe)E(OEt)D(OMe)E(OEt)D(OEt)-OEt; configuration not given here)",
    "GI50": "> 100 µM (inactive)"
  },
  {
    "molecule": "CC1(C)COCN1COC1CCCCC1",
    "GI50": "> 100 µM (inactive)"
  },
  {
    "molecule": "CN(O)C(=O)Cc1ccccc1",
    "GI50": "> 100 µM (inactive)"
  },
  {
    "molecule": "Cc1ccc2nc(-c3nccn3C)cc(C(=O)NC(C)CN(C)C)c2c1 (stereo unspecified)",
    "GI50": "> 100 µM (inactive)"
  }
]

Challenge: Record CCOC(=O)c1nc(C)oc1C(F)(F)F : what is its GI50 with HCT-116?
Response given: > 100 µM (inactive)

Challenge: Lab note: need GI50 for OC(CCNCc1ccccc1)c1ccc2ccccc2c1 (stereo unspecified) on HCT-116, anyone have it?
Response given: 22.4 µM (inactive)

Challenge: // lookup GI50 | system=HCT-116 | key= O=C(NCCCN(CCCCN(CCCNC(=O)C(F)(F)F)Cc1ccc2ccccc2c1)Cc1ccc2ccccc2c1)C(F)(F)F
Response given: 4.45 µM (inactive)

Challenge: Field: GI50 (HCT-116). Entry: C=CCc1c(C)nc(C)nc1N/N=C/C=C/c1ccccc1
Response given: 36.1 µM (inactive)

Challenge: Kindly state the measured GI50 obtained for N#C[C@H]1C(=O)C(c2nc3ccccc3[nH]2)S[C@H]1c1ccccc1 (stereo partly specified) with HCT-116.
Response given: 27.4 µM (inactive)

Challenge: So what GI50 did CC(=O)NC(Cc1ccccc1)C(=S)N1CCCC1 (stereo unspecified) get with HCT-116?
Response given: > 100 µM (inactive)

Challenge: Which measured GI50 belongs to CCCCOC1CC2(c3ccc(OC)cc3)C(=O)c3ccccc3N2O1 (stereo unspecified) , tested on HCT-116?
Response given: 37.5 µM (inactive)
